target: PI-3 kinase γ (Homo sapiens, UniProt P48736); experiment: PI3Kγ inhibitory activity, PI3-kinase HTRF assay (inhibition ratio); format: biochemical; conditions: 0.5 h; PI3Kγ, compound at 50 μM
Sequence (P48736 whole entry): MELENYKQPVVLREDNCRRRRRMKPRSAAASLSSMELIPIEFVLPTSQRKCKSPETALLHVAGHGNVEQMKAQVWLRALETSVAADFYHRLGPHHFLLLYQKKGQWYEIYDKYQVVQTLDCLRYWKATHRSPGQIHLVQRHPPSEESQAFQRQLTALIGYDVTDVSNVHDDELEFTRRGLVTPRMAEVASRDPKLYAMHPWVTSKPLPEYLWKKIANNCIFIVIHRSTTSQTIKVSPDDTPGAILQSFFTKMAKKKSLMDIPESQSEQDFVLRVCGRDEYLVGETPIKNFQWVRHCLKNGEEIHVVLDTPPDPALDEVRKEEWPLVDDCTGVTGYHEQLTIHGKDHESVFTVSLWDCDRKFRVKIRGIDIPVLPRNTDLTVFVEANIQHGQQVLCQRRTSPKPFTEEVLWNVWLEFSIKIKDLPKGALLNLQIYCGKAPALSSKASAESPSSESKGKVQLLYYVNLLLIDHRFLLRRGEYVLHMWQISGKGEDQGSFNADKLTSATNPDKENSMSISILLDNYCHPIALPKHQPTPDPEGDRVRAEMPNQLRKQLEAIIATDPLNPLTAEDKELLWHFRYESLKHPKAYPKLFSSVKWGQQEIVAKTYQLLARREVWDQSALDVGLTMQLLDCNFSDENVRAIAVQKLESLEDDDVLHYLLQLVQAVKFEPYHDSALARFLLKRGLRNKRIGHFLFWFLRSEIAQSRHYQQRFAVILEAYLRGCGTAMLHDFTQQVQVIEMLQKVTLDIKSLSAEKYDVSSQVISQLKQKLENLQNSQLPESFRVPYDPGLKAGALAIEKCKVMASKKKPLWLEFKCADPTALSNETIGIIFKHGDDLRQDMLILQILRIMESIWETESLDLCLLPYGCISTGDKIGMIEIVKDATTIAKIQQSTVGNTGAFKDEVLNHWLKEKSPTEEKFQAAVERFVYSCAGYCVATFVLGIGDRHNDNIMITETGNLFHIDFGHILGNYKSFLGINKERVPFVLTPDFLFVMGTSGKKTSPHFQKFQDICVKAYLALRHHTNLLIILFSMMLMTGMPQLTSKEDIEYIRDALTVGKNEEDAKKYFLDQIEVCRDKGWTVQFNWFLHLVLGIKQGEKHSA
Known inhibition at 50 µM of a selection of molecules
measurementKind: inhibition at 50 µM (%)

smilesInput: CNC(=O)Nc1cc2n(n1)CCN2c1cc(Oc2ccccc2)cc(C(=O)N2CCOCC2)c1
limitOperator: =
dataValue: 91
//
smilesInput: CNC(=O)Nc1cc2n(n1)CCN2c1ccc(C(N)=O)cc1
limitOperator: ≥
dataValue: 95
//
smilesInput: CC(=O)Nc1cc2n(n1)CCN2c1ccccc1
limitOperator: ≥
dataValue: 95
//
smilesInput: CCOC(=O)CNC(=O)Nc1nc2c(s1)CN(c1cc(OC)nc(OC)n1)CC2
limitOperator: ≥
dataValue: 95
//
smilesInput: COc1cccc(N2CCn3nc(N)cc32)c1
limitOperator: =
dataValue: 77
//
smilesInput: O=C(NCCC(=O)N1CCOCC1)Nc1cc2n(n1)CCN2c1cccc(Cl)c1
limitOperator: ≥
dataValue: 95
//
smilesInput: CNC(=O)Nc1cc2n(n1)CCN2c1cc(Br)cc(C(=O)Nc2cccc(C(=O)O)c2)c1
limitOperator: =
dataValue: 94
//
smilesInput: CNC(=O)Nc1cc2n(n1)CCN2c1cc(Br)cc(C(=O)OC)c1
limitOperator: ≥
dataValue: 95
//
smilesInput: CNC(=O)Nc1cc2n(n1)CCN2c1ccccn1
limitOperator: =
dataValue: 85
//
smilesInput: O=C(O)CNC(=O)Nc1cc2n(n1)CCN2c1ccccc1
limitOperator: ≥
dataValue: 95
//
smilesInput: CNC(=O)Nc1nc2c(s1)CN(c1ccnc(Cl)n1)CC2
limitOperator: ≥
dataValue: 95
//
smilesInput: O=C(Nc1cc2n(n1)CCN2c1cccc(Cl)c1)C1CCCC1
limitOperator: =
dataValue: 84
//
smilesInput: CNC(=O)Nc1cc2n(n1)CCN2C(=O)c1ccc2c(c1)CCO2
limitOperator: =
dataValue: 77
//
smilesInput: CNC(=O)Nc1cc2n(n1)CCN2c1nc2ccccc2s1
limitOperator: ≥
dataValue: 95

Just for reference, patent US20110230472A1 is where these values come from.
